Reference for the values: patent US20130164813A1

- TARGET_OF_ASSAY: Transglutaminase 2 (Cavia cutleri)
- Construct: purchased Sigma-Aldrich T5398
- Sequence (P08587 1-690): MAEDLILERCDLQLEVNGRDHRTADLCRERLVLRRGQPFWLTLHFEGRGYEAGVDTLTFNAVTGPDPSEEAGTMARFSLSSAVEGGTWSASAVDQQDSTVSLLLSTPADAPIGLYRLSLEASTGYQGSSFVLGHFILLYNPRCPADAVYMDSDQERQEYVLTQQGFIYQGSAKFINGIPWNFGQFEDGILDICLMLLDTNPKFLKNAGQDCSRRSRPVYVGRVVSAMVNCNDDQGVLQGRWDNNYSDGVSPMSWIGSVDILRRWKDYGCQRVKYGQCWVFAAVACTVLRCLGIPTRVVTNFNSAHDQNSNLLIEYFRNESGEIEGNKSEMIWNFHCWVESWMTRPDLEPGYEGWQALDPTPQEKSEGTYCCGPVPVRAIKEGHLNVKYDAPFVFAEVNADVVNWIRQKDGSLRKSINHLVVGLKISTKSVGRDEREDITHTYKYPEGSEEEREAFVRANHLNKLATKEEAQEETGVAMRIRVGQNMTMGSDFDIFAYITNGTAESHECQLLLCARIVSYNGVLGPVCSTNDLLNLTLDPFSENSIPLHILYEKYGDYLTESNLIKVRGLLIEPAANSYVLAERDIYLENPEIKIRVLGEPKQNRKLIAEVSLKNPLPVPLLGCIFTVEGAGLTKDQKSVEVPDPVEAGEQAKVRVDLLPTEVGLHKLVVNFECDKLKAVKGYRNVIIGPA
- TEST_PROTOCOL: In vitro assay for inhibitory effect on TGase 2 ([1,4-14C] putrescine incorporation into succinylated casein)
- Format: biochemical
- RUN_CONDITIONS: at 10 μM
READOUT_LABEL: inhibition at 10 µM (%)
Your answer is read as %, so omit the unit and give the number.

Exercise: What value of inhibition at 10 µM has been recorded for this entry: Cc1ccc(C#Cc2nc3ncccc3nc2OCCN2CCCC2)cc1 [Example 21]
Key: 52

Exercise: Form field: reported inhibition at 10 µM of C(#Cc1nc2ncccc2nc1OCCN1CCCC1)c1ccccc1 [Example 1]
Key: 91

Exercise: For the compound shown here, CN(C)c1ccccc1C#Cc1nc2ncccc2nc1OCCN1CCCC1 [Example 42] , give the reported inhibition at 10 µM.
Key: 63

Exercise: Find the recorded inhibition at 10 µM belonging to CN(C)c1ccc(C#Cc2nc3ncccc3nc2OCCN2CCCCC2)cc1 [Example 9] and report it.
Key: 57

Exercise: Which measured inhibition at 10 µM value corresponds to C(#Cc1nc2ncccc2nc1OCCN1CCOCC1)c1ccccc1 [Example 3] ?
Key: 47

Exercise: Please report the recorded inhibition at 10 µM for CN(C)c1ccccc1C#Cc1nc2ncccc2nc1OCCN1CCCCC1 [Example 43] .
Key: 54

Exercise: Which inhibition at 10 µM is reported for this compound? CN(C)c1ccc(C#Cc2nc3ncccc3nc2OCCN2CCCC2)cc1 [Example 8]
Key: 68

Exercise: Quick one: inhibition at 10 µM of C(#Cc1nc2ncccc2nc1OCCN1CCCCC1)c1ccccc1 [Example 2] ?
Key: 83

Exercise: Endpoint output: inhibition at 10 µM of C(#Cc1nc2ncccc2nc1OCCCN1CCCCC1)c1ccccc1 [Example 5] . Value?
Key: 54

Exercise: Return reported inhibition at 10 µM; argument: COc1ccc(C#Cc2nc3ncccc3nc2OCCN2CCCC2)cc1 [Example 14]
Key: 64

Exercise: What measured inhibition at 10 µM goes with COc1ccc(C#Cc2nc3ncccc3nc2OCCN2CCCCC2)cc1 [Example 15] ?
Key: 51

Exercise: Query (compound): C(#Cc1nc2ncccc2nc1OCCCN1CCCC1)c1ccccc1 [Example 4] ; field requested: inhibition at 10 µM
Key: 59

Exercise: Form field: reported inhibition at 10 µM of O=C1CCCN1CCCOc1nc2cccnc2nc1C#Cc1ccccc1 [Example 7]
Key: 43

Exercise: Report inhibition at 10 µM for C(#Cc1nc2ncccc2nc1OCCCN1CCOCC1)c1ccccc1 [Example 6] please.
Key: 32
